Measured values drawn from PubChem BioAssay (NCATS) for this set.

- assay.procedure: ZIKV-mCherry secondary qHTS for Zika virus inhibitors (AID 1347158)
- particulars: Vero cells, ZIKV-mCherry infection imaging, 48-72 h; series mostly up to 49.2 µM
Inconclusive results are not listed. Calls of active or inactive are those of the source. The call rests on the fitted dose curve; in most records, active means well fitted inhibition curve with a large enough effect; inconclusive means small, poorly fitted or top-dose-only effect; inactive means no such curve, though single readings can be large or run the other way.
Select the correct class. Options are YES (active), NO (inactive) and nothing else.

-- ask Hi team, can someone confirm the assay call for `CC#C[C@@H](CC(=O)O)c1ccc(OCc2ccc(CN3CCC4(C=Cc5ccccc54)CC3)s2)cc1` ?
-- reply NO

-- ask Hi team, can someone confirm the assay call for `Oc1cccc(-c2c3nc(c(-c4cccc(O)c4)c4ccc([nH]4)c(-c4cccc(O)c4)c4nc(c(-c5cccc(O)c5)c5ccc2[nH]5)CC4)C=C3)c1` ?
-- reply NO

-- ask Hi team, can someone confirm the assay call for `O=C(O)c1ccc(N2C(=O)/C(=C/c3ccc(-c4ccc([N+](=O)[O-])cc4)o3)C=C2c2ccccc2)cc1` ?
-- reply NO

-- ask Hi team, can someone confirm the assay call for `N#Cc1ccc(N2N=C3c4ccc(C(=O)O)cc4CC[C@@H]3[C@@H]2C2CCCC2)cc1Cl` ?
-- reply YES

###

Exercise: for every item that follows, state its recorded activity change, negative = cytotoxicity.
- Tested on: C33A
- assay.procedure: Primary qHTS to identify gynecologic anti-cancer compounds using libraries of approved drugs and bioactive compounds (AID 1345084); further: on the % scale 0 is the no-effect control and ±100 the full control effect; nearly all actives have a fitted effect of over 55% in size
- particulars: Gynecologic cancer cell panel viability, ATPlite luminescence, 48 h; series mostly up to 57.5 µM
Inconclusive results are not listed. Calls of active or inactive are those of the source. Calls follow the shape of the dose curve; as a rule, active = well fitted cell-killing curve with a large enough effect; inconclusive = small, poorly fitted or top-dose-only effect, or effect the other way; inactive = flat fitted curve, though single readings scatter.

Entry CC(=O)OC1CC(C)(C(=O)O)CC2C3=CC(=O)C4C5(C)CCC(OC6OC(C(=O)O)C(O)C(O)C6OC6OC(C(=O)O)C(O)C(O)C6O)C(C)(C)C5CCC4(C)C3(C)CCC12C (stereo not given) — recorded activity change, negative = cytotoxicity = 10.4% [at 11.6 µM] (inactive)

Entry C[C@@H]1O[C@@H](O[C@H]2[C@H](O[C@H]3CC[C@@]4(C)C(CC[C@]5(C)C4C=C[C@]46OC[C@@]7(CCC(C)(C)C[C@H]74)[C@@H](O[C@@H]4O[C@@H](C)[C@H](O)[C@@H](O)[C@H]4O)C[C@]65C)[C@]3(C)CO)O[C@H](CO)[C@@H](O)[C@@H]2O[C@@H]2O[C@H](CO)[C@@H](O)[C@H](O)[C@H]2O)[C@H](O)[C@H](O)[C@H]1O (stereo not given in full) — recorded activity change, negative = cytotoxicity = -27.7% [at 11.6 µM] (inactive)

Entry CC(=O)O[C@@H]1[C@@H](O)[C@H](O[C@@H]2[C@@H](O)[C@@H](O)[C@H](O[C@H]3[C@H](O[C@H]4[C@H](O[C@H]5CC[C@@]6(C)C(CC[C@]7(C)C6CC=C6[C@@H]8CC(C)(C)CC[C@]8(C(=O)O)CC[C@]67C)[C@]5(C)CO)O[C@H](CO)[C@@H](O)[C@@H]4O)OC[C@@H](O)[C@@H]3O)O[C@H]2C)OC[C@H]1O (stereo not given in full) — recorded activity change, negative = cytotoxicity = -4.66% [at 11.6 µM] (inactive)

Entry `CC(C)NC(=O)N1CC[C@H](N=C2Nc3cc(F)ccc3N(CC(F)F)c3ccc(Cl)cc32)C1` — recorded activity change, negative = cytotoxicity = 7.02% [at 11.6 µM] (inactive)

Entry CCC(C)C(=O)O[C@H]1[C@H](O)[C@@]2(COC(C)=O)C(CC1(C)C)C1=CCC3[C@@]4(C)CC[C@H](O[C@@H]5O[C@H](C(=O)O)[C@@H](O)[C@H](O)[C@H]5O)[C@@](C)(CO)C4CC[C@@]3(C)[C@]1(C)C[C@@H]2O (stereo not given in full) — recorded activity change, negative = cytotoxicity = -3% [at 11.6 µM] (inactive)
